Listed below: diameter of the inhibition zone (DIZ) values for each entry.
# Test system: Staphylococcus aureus
# Protocol details: Antibacterial activity against methicillin-resistant Staphylococcus aureus after 24 hrs by disk diffusion method
# Assay type: functional

Answered cases to consult:
Cc1nn(-c2ccccc2)c(Cl)c1/C=C/C(=O)C1C(=O)NC(=S)NC1=O ... 17.1 mm
Cc1nn(-c2ccccc2)c(Cl)c1/C=C/C(=O)C1C(=O)NC(=O)NC1=O ... 20.2 mm
Cc1nn(-c2ccccc2)c(Cl)c1/C=C/C(=O)C1C(=O)N(C)C(=O)N(C)C1=O ... 17.3 mm
Cc1nn(-c2ccccc2)c(Cl)c1C1CC(C2C(=O)NC(=O)NC2=O)=NN1 (stereo unspecified) ... 15.3 mm
Cc1nn(-c2ccccc2)c(Cl)c1C1CC(C2C(=O)N(C)C(=O)N(C)C2=O)=NN1 (stereo unspecified) ... 16.5 mm

Query: Using the record for Cc1nn(-c2ccccc2)c(Cl)c1C1CC(C2C(=O)NC(=S)NC2=O)=NN1 (stereo unspecified) , report its diameter of the inhibition zone (DIZ).
Result: 14.2 mm

====

# System: Streptococcus pyogenes
# Protocol details: Antibacterial activity against clinical isolate of Streptococcus pyogenes after 24 hrs by disk diffusion method
# Assay type: functional
Listed below: diameter of the inhibition zone (DIZ) values for each entry.
Enter your answer as a number in mm; do not include the unit.

Answered cases to consult:
Cc1nn(-c2ccccc2)c(Cl)c1/C=C/C(=O)C1C(=O)N(C)C(=O)N(C)C1=O ... 20.1
Cc1nn(-c2ccccc2)c(Cl)c1C1CC(C2C(=O)N(C)C(=O)N(C)C2=O)=NN1 (stereo unspecified) ... 17.1

Query: Using the record for Cc1nn(-c2ccccc2)c(Cl)c1C1CC(C2C(=O)NC(=S)NC2=O)=NN1 (stereo unspecified) , report its diameter of the inhibition zone (DIZ).
Result: 15.2

Query: Using the record for Cc1nn(-c2ccccc2)c(Cl)c1/C=C/C(=O)C1C(=O)NC(=O)NC1=O , report its diameter of the inhibition zone (DIZ).
Result: 22.2

Query: Using the record for Cc1nn(-c2ccccc2)c(Cl)c1/C=C/C(=O)C1C(=O)NC(=S)NC1=O , report its diameter of the inhibition zone (DIZ).
Result: 18.4

Query: Using the record for Cc1nn(-c2ccccc2)c(Cl)c1C1CC(C2C(=O)NC(=O)NC2=O)=NN1 (stereo unspecified) , report its diameter of the inhibition zone (DIZ).
Result: 16.8

====

# System: Klebsiella pneumoniae
# Protocol details: Antibacterial activity against clinical isolate of Klebsiella pneumoniae after 24 hrs by broth dilution method
# Type: functional
Listed below: MIC values for each entry.
Enter your answer as a number in µg/mL; do not include the unit.

Answered cases to consult:
Cc1nn(-c2ccccc2)c(Cl)c1C1CC(C2C(=O)NC(=S)NC2=O)=NN1 (stereo unspecified) ... 50
Cc1nn(-c2ccccc2)c(Cl)c1/C=C/C(=O)C1C(=O)N(C)C(=O)N(C)C1=O ... 50
Cc1nn(-c2ccccc2)c(Cl)c1C1CC(C2C(=O)N(C)C(=O)N(C)C2=O)=NN1 (stereo unspecified) ... 50
Cc1nn(-c2ccccc2)c(Cl)c1C1CC(C2C(=O)NC(=O)NC2=O)=NN1 (stereo unspecified) ... 50
Cc1nn(-c2ccccc2)c(Cl)c1/C=C/C(=O)C1C(=O)NC(=S)NC1=O ... 25

As a next step, examine the compound that follows.
Query: Using the record for Cc1nn(-c2ccccc2)c(Cl)c1/C=C/C(=O)C1C(=O)NC(=O)NC1=O , report its MIC.
Result: 12.5

Hello, the source for this data is ChEMBL document CHEMBL1770075, in case you need it.
